Molecular target: GluN2B glutamate receptors (Homo sapiens, UniProt Q05586+Q13224)
Construct: expressed in transfected cells; host or cells: mammalian cells (line not described for GluN2B)
Sequence (Q13224 27-1484, other chains not shown): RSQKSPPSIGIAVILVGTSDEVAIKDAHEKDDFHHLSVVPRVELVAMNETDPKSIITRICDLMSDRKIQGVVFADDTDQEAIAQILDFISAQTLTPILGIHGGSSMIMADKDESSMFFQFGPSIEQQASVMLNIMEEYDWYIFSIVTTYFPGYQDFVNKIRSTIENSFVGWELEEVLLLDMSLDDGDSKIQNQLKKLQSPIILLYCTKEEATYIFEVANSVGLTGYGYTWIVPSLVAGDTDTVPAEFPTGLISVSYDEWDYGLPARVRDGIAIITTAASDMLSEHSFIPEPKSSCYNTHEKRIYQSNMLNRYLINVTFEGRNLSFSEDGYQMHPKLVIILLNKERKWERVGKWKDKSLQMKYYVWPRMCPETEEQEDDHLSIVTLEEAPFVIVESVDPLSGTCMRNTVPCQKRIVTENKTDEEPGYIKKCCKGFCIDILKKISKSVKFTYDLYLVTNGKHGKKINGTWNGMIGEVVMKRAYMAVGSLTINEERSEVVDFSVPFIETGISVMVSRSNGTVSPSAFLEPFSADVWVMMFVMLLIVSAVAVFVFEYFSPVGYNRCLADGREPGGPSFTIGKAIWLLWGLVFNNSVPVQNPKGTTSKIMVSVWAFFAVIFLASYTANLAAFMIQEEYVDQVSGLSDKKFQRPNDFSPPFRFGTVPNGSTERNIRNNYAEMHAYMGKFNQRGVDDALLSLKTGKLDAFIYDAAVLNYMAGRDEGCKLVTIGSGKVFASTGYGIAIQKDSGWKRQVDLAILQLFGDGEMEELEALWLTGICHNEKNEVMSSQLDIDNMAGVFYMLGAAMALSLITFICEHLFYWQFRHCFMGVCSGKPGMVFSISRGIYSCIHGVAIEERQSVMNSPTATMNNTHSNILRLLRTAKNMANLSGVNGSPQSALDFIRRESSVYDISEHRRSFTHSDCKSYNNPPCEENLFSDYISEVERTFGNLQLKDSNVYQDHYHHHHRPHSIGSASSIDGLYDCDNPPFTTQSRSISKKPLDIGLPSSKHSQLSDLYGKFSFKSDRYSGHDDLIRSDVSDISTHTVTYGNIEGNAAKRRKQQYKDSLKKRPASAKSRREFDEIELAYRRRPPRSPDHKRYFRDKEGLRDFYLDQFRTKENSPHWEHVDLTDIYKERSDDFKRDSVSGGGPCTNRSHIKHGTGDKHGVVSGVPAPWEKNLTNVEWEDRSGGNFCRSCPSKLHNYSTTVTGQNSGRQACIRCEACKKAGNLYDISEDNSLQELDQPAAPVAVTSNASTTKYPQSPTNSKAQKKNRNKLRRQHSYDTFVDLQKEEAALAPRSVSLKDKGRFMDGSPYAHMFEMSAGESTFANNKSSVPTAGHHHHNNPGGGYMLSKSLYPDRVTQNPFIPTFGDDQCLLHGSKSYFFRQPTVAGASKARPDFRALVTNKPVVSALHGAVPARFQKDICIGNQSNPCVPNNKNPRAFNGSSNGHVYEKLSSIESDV
Assay: Whole-cell patch clamp of mammalian cells (Ionworks Barracuda), positive allosteric modulation (PAM) of NMDA receptor, 2B
Assay type: cell-based
Conditions: % activation of current elicited with EC20 L-glutamate and 30 µM glycine
Listed next: entries and their corresponding Emax.
Give a bare numeral; the unit % is implied.

1) C[C@H](CCC1(O)CCC(F)(F)CC1)[C@H]1CC[C@H]2[C@@H]3CC=C4C[C@](O)(C(F)(F)F)CC[C@]4(C)[C@H]3CC[C@]12C
166
2) CC(C)[C@@H](O)CC[C@@H](C)[C@H]1CC[C@H]2[C@@H]3CC=C4C[C@](O)(C(F)(F)F)CC[C@]4(C)[C@H]3CC[C@]12C
250
3) C[C@H](O)CC[C@@H](C)[C@H]1CC[C@H]2[C@@H]3CC[C@H]4C[C@](O)(C(F)(F)F)CC[C@]4(C)[C@H]3CC[C@]12C
163
4) C[C@H](CC[C@@](C)(O)c1ccccc1)[C@H]1CC[C@H]2[C@@H]3CC=C4C[C@@](C)(O)CC[C@]4(C)[C@H]3CC[C@]12C
8.8
5) C[C@H](CC[C@]1(O)CC[C@H](C)CC1)[C@H]1CC[C@H]2[C@@H]3CC[C@H]4C[C@](O)(C(F)(F)F)CC[C@]4(C)[C@H]3CC[C@]12C
71.1
6) C[C@H](CC[C@@H](O)C(C)(C)C)[C@H]1CC[C@H]2[C@@H]3CC=C4C[C@](O)(C(F)(F)F)CC[C@]4(C)[C@H]3CC[C@]12C
461
7) CC[C@]1(O)CC[C@H]2C(=CC[C@@H]3[C@@H]2CC[C@]2(C)[C@@H]([C@H](C)CC[C@]4(O)CCOC4)CC[C@@H]32)C1
271
8) C[C@H](CC[C@](C)(O)C(F)(F)F)[C@H]1CC[C@H]2[C@@H]3CC=C4C[C@](O)(C(F)(F)F)CC[C@]4(C)[C@H]3CC[C@]12C
611

response.value for `C[C@H](CC[C@H](O)C(C)(C)C)[C@H]1CC[C@H]2[C@@H]3CC[C@@H]4C[C@](O)(C(F)(F)F)CC[C@]4(C)[C@H]3CC[C@]12C` (field: Emax) = 379

response.value for C[C@H](CCC1(O)CCC(C(C)(C)C)CC1)[C@H]1CC[C@H]2[C@@H]3CC[C@H]4C[C@](O)(C(F)(F)F)CC[C@]4(C)[C@H]3CC[C@]12C (some centres unmarked) (field: Emax) = 14.6

response.value for `CC[C@]1(O)CC[C@@]2(C)C(=CC[C@H]3[C@@H]4CC[C@H]([C@H](C)CC[C@H](O)c5ccc(F)cc5)[C@@]4(C)CC[C@@H]32)C1` (field: Emax) = 167

###

Biological target: GlunN1/GluN2A glutamate receptors (Homo sapiens, UniProt Q05586+Q12879)
Sequence (Q12879 23-1464, other chains not shown): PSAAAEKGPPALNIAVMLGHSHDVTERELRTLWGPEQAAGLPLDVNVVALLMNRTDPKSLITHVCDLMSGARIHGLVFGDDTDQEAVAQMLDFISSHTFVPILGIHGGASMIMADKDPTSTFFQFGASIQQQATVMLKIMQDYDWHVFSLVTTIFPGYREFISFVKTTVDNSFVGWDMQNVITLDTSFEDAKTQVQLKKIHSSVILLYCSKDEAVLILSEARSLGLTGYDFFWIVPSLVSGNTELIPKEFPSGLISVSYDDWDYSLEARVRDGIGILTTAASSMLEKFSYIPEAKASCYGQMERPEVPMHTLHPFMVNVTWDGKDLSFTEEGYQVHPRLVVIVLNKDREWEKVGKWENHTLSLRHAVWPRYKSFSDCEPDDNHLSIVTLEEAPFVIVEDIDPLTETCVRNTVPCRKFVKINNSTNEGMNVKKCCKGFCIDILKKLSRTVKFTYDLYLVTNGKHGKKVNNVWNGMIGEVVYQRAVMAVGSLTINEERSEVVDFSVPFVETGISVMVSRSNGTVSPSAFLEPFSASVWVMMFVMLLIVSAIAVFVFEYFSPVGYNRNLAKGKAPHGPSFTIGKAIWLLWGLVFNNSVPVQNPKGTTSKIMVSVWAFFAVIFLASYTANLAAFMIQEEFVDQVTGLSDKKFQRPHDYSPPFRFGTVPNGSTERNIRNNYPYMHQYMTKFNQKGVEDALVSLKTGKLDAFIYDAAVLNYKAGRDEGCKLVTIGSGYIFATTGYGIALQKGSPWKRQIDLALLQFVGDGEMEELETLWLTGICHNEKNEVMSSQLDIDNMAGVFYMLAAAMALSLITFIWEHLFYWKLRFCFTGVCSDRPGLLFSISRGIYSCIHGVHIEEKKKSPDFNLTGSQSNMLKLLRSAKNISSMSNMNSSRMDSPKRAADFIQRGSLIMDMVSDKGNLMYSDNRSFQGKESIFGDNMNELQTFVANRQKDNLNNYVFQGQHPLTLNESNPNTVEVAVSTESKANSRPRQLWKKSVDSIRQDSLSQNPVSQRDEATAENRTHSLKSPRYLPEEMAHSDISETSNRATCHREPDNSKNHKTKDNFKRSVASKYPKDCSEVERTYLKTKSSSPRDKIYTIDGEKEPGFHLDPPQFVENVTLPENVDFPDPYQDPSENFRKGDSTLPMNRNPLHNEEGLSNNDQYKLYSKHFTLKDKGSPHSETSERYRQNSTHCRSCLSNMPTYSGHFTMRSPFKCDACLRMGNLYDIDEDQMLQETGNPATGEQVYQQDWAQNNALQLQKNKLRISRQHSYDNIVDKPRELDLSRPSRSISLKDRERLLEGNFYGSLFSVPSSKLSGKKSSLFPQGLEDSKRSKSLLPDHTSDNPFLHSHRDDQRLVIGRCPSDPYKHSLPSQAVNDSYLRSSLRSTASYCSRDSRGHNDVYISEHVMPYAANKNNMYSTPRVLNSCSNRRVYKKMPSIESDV
Experiment: Whole-cell patch clamp of mammalian cells (Ionworks Barracuda), positive allosteric modulation (PAM) of NMDA receptor, 2A
Conditions: HEK293 cells; co-application with EC20 L-glutamate and 30 µM glycine; 8-point concentration-response
Listed next: entries and their corresponding EC50.
Give a bare numeral; the unit nM is implied.

GlunN1/GluN2A glutamate receptors (Homo sapiens, UniProt Q05586+Q12879) assay, compound `CC[C@]1(O)CC[C@H]2C(=CC[C@@H]3[C@@H]2CC[C@]2(C)[C@@H]([C@H](C)CCC[C@@H](O)C(C)C)CC[C@@H]32)C1` , recorded EC50 = 321

GlunN1/GluN2A glutamate receptors (Homo sapiens, UniProt Q05586+Q12879) assay, compound `C[C@H](CC[C@](C)(O)C(F)(F)F)[C@H]1CC[C@H]2[C@@H]3CC=C4C[C@@](C)(O)CC[C@@H]4[C@H]3CC[C@]12C` , recorded EC50 = 34.5

GlunN1/GluN2A glutamate receptors (Homo sapiens, UniProt Q05586+Q12879) assay, compound CCC(O)CCC[C@@H](C)[C@H]1CC[C@H]2[C@@H]3CC=C4C[C@](O)(CC)CC[C@@H]4[C@H]3CC[C@]12C (stereo partly drawn) , recorded EC50 = 254

###

Target: GluN2B glutamate receptors (Homo sapiens, UniProt Q05586+Q13224)
Construct: expressed in transfected cells; host or cells: mammalian cells (line not described for GluN2B)
Test: Whole-cell patch clamp of mammalian cells (Ionworks Barracuda), positive allosteric modulation (PAM) of NMDA receptor, 2B
Type: cell-based
Settings: % activation of current elicited with EC20 L-glutamate and 30 µM glycine
measured attribute: Avg Emax 2B (%)
Entry format: amount then unit.

1) C[C@H](CCC[C@H](O)C(C)(C)C)[C@H]1CC[C@H]2[C@@H]3CC[C@H]4C[C@](O)(C(F)(F)F)CC[C@]4(C)[C@H]3CC[C@]12C [Compound 12156]
111.2%
2) C[C@H](CCC[C@H](O)C(F)(F)F)[C@H]1CC[C@H]2[C@@H]3CC[C@H]4C[C@](O)(C(F)(F)F)CC[C@]4(C)[C@H]3CC[C@]12C [Compound 11934]
70.0%

response.value for C[C@H](CCC(O)(c1ccccc1)C(F)(F)F)[C@H]1CC[C@H]2[C@@H]3CC=C4C[C@@](C)(O)CC[C@]4(C)[C@H]3CC[C@]12C (some centres unmarked) [Compound 559] (field: Avg Emax 2B (%)) = 373.2%

response.value for C[C@H](CCC1(O)CCOCC1)[C@H]1CC[C@H]2[C@@H]3CC[C@H]4C[C@](O)(C(F)(F)F)CC[C@]4(C)[C@H]3CC[C@]12C [Compound 11] (field: Avg Emax 2B (%)) = 157.4%

response.value for C[C@H](CCC(O)Cc1ccccc1)[C@H]1CC[C@H]2[C@@H]3CC=C4C[C@@](C)(O)CC[C@]4(C)[C@H]3CC[C@]12C (some centres unmarked) [Compound 660] (field: Avg Emax 2B (%)) = 281.1%

response.value for C[C@H](CCC1(O)CCC(C)(C)CC1)[C@H]1CC[C@H]2[C@@H]3CC[C@@H]4C[C@](O)(C(F)(F)F)CC[C@]4(C)[C@H]3C(=O)C[C@]12C [Compound 5294] (field: Avg Emax 2B (%)) = 13.9%

response.value for CC(C)[C@@H](O)CC[C@@H](C)[C@H]1CC[C@H]2[C@@H]3CC[C@H]4C[C@@](C)(O)CC[C@@H]4[C@H]3CC[C@]12C [Compound 1A75] (field: Avg Emax 2B (%)) = 308.0%

response.value for CCC(O)CCC[C@@H](C)[C@H]1CC[C@H]2[C@@H]3CC=C4C[C@](O)(CC)CC[C@@H]4[C@H]3CC[C@]12C (some centres unmarked) [Compound 10673] (field: Avg Emax 2B (%)) = 213.5%

###

Target: GlunN1/GluN2A glutamate receptors (Homo sapiens, UniProt Q05586+Q12879)
Construct: expressed in transfected cells
Experiment: Whole-cell patch clamp of mammalian cells (Ionworks Barracuda), positive allosteric modulation (PAM) of NMDA receptor, 2A
Assay type: cell-based
Details: HEK293 cells; co-application with EC20 L-glutamate and 30 µM glycine; 8-point concentration-response
measured attribute: log10 EC50 (log10 of the value in nM)
// stored as log10 of EC50 expressed in nM

1. CC[C@H](O)CCC[C@@H](C)[C@H]1CC[C@H]2[C@@H]3CC=C4C[C@](O)(CC)CC[C@@H]4[C@H]3CC[C@]12C
1.82
2. C[C@H](CCC[C@@H](C)O)[C@H]1CC[C@H]2[C@@H]3CC[C@H]4C[C@](O)(C(F)(F)F)CC[C@]4(C)[C@H]3CC[C@]12C
2.68
3. C[C@H](CCC[C@H](O)C(C)(C)C)[C@H]1CC[C@H]2[C@@H]3CC[C@H]4C[C@](O)(C(F)(F)F)CC[C@]4(C)[C@H]3CC[C@]12C
2.19

response.value for C[C@H](CCC(O)(c1ccccc1)C(F)(F)F)[C@H]1CC[C@H]2[C@@H]3CC=C4C[C@@](C)(O)CC[C@]4(C)[C@H]3CC[C@]12C (stereo partly drawn) (field: log10 EC50) = 3.20

response.value for `CC(C)[C@H](O)CC[C@@H](C)[C@H]1CC[C@H]2[C@@H]3CC[C@H]4C[C@@](C)(O)CC[C@@H]4[C@H]3CC[C@]12C` (field: log10 EC50) = 2.22

###

Target: GluN2B glutamate receptors (Homo sapiens, UniProt Q05586+Q13224)
Construct: expressed in transfected cells; host or cells: mammalian cells (line not described for GluN2B)
Test: Whole-cell patch clamp of mammalian cells (Ionworks Barracuda), positive allosteric modulation (PAM) of NMDA receptor, 2B
Type: cell-based
Details: co-application with EC20 L-glutamate and 30 µM glycine; 8-point concentration-response
measured attribute: pEC50
// pEC50: -log10(molar conc.)

1. C[C@H](CCC[C@H](O)C(C)(C)C)[C@H]1CC[C@H]2[C@@H]3CC[C@H]4C[C@](O)(C(F)(F)F)CC[C@]4(C)[C@H]3CC[C@]12C [Compound 12156]
5.61
2. C[C@H](CCC[C@H](O)C(F)(F)F)[C@H]1CC[C@H]2[C@@H]3CC[C@H]4C[C@](O)(C(F)(F)F)CC[C@]4(C)[C@H]3CC[C@]12C [Compound 11934]
6.33
3. CC[C@]1(O)CC[C@H]2C(=CC[C@@H]3[C@@H]2CC[C@]2(C)[C@@H]([C@H](C)CCC[C@@H](O)C(C)C)CC[C@@H]32)C1 [Compound 10114]
6.30
4. C[C@H](CC[C@](C)(O)C(F)(F)F)[C@H]1CC[C@H]2[C@@H]3CC=C4C[C@@](C)(O)CC[C@@H]4[C@H]3CC[C@]12C [Compound 9062]
6.75

response.value for CC[C@H](O)CCC[C@@H](C)[C@H]1CC[C@H]2[C@@H]3CC=C4C[C@](O)(CC)CC[C@@H]4[C@H]3CC[C@]12C [Compound 10949] (field: pEC50) = 6.86

Source of measurements: patent EP3529257B1
